Give measured pIC50 for each item. Keep answers brief.
# Target Or System: HCMV polymerase (Human cytomegalovirus, UniProt P08546)
# Construct: made in house; host or cells: recombinant baculovirus-infected SF-9 cells
# Sequence (P08546 whole entry): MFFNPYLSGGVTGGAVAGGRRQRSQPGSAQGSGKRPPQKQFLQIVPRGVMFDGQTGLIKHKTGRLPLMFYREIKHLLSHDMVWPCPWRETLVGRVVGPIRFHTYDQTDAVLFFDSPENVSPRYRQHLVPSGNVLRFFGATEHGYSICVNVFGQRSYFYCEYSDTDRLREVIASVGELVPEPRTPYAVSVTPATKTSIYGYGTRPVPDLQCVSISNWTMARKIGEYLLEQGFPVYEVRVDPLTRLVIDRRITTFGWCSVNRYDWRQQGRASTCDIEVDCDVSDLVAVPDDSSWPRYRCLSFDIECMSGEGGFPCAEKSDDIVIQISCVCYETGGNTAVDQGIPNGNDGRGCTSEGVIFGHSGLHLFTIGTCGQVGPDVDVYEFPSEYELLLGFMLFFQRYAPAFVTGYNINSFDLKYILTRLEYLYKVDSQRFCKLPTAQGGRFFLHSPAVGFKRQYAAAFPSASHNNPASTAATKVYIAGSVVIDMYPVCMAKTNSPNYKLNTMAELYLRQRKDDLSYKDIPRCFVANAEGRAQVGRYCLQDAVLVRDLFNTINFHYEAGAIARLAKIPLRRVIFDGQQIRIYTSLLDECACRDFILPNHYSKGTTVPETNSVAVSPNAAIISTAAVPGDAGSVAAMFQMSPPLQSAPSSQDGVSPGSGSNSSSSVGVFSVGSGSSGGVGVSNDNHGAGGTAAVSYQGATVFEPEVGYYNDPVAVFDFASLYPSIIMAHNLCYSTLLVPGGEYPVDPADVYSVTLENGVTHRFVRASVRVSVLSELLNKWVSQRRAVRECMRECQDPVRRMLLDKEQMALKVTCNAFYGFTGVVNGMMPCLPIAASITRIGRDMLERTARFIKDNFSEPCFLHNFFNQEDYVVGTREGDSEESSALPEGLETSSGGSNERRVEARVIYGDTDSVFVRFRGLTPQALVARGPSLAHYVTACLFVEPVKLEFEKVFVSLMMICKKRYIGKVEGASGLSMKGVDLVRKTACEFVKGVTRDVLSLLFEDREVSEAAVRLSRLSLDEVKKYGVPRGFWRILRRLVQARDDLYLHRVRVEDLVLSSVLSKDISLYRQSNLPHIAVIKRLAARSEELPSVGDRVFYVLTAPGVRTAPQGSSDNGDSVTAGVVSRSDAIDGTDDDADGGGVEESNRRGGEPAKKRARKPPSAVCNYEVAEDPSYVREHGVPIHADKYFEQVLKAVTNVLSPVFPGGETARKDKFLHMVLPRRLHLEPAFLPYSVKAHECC
# Assay Explanation: HCMV polymerase scintillation proximity assay (SPA), modified version
# Type: biochemical
# Test Settings: CMV polymerase; Table 1; modified assay with 4.5 mM DTT, compounds in 100% DMSO; read-out: Antiviral Selective Polymerase IC50 Values, CMV
# Experimental: The HCMV polymerase assay is performed using a scintillation proximity assay (SPA) as described in several references, such as N. D. Cook, et al., Pharmaceutical Manufacturing International, pages 49-53 (1992); K. Takeuchi, Laboratory Practice, September issue (1992); U.S. Pat. No. 4,568,649 (1986); which are incorporated by reference herein. Reactions are performed in 96-well plates. […] Plates are incubated 10 min. at 37° C., then equilibrated to room temperature, and counted on a Packard Topcount. […]
One number for each entry, as −log10 of the molar value.

Here's what some known entries look like.
                                   compound                          target_or_system  endpoint_result
0  O=C(NCc1ccc(Cl)cc1)c1cnc2c(F)cc(I)cc2c1O [Example 5]  HCMV polymerase (Human cytomegalovirus, UniProt P08546)             5.24
1  CN(C)c1ccc2c(O)c(C(=O)NCc3ccc(Cl)cc3)cnc2c1 [Example 27]  HCMV polymerase (Human cytomegalovirus, UniProt P08546)             4.80
2  O=C(O)/C=C/c1cc(F)c2ncc(C(=O)NCc3ccc(Cl)cc3)c(O)c2c1 [Example 113]  HCMV polymerase (Human cytomegalovirus, UniProt P08546)             4.98
3  Nc1ccc2ncc(C(=O)NCc3ccc(Cl)cc3)c(O)c2c1 [Example 28]  HCMV polymerase (Human cytomegalovirus, UniProt P08546)             4.74
4  CSCC#Cc1cc(F)c2ncc(C(=O)NCc3ccc(Cl)cc3)c(O)c2c1 [Example 126]  HCMV polymerase (Human cytomegalovirus, UniProt P08546)             4.71

Recall the recorded pIC50 for CC(C)(C)OC(=O)CCNS(=O)(=O)c1cc(F)c2ncc(C(=O)NCc3ccc(Cl)cc3)c(O)c2c1 [Example 258] with HCMV polymerase (Human cytomegalovirus, UniProt P08546) and state it.
4.82
